Target: Luciferin 4-monooxygenase (Photinus pyralis) (UniProt P08659)
Sequence (P08659 whole entry, looked up): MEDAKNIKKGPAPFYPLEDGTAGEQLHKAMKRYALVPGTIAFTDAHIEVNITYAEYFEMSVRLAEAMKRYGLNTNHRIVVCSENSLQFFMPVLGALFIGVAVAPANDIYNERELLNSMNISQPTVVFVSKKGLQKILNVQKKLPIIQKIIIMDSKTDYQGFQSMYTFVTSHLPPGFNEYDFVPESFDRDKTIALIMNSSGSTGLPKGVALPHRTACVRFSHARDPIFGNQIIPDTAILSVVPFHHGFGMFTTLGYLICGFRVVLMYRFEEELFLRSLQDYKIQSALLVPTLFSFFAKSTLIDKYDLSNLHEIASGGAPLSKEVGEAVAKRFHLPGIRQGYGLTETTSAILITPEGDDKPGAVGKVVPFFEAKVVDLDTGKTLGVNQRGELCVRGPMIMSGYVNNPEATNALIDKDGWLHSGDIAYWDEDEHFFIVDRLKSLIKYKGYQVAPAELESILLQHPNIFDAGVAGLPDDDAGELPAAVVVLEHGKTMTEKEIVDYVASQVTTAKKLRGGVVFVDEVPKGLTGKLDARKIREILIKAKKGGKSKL
Experiment: firefly luciferase enzyme inhibitors, primary screen, biochemical, luminescence, purified enzyme, 2006 set (AID 1141);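 further: cell-free assay with purified firefly luciferase at 100 ng per well in PBS; test concentration not given here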
Settings: SteadyGlo luminescence, 30 min, higher = more signal, called active from +8 up or from −8 down
# binarize z-score: threshold 0.1 inclusive, high side True, low side False

The following compounds have reported results that may help.
{"columns": ["compound", "label"],
 "data": [
  ["O=C1[C@H]2[C@H]3[C@H](O)[C@H](O)CC(=NOCc4ccccc4)[C@@H]3CC[C@H]2C(=O)N1C[C@@H]1CCCO1", "True"],
  ["C#CCCCON=C1C[C@@H](O)[C@@H](O)[C@@H]2[C@@H]3C(=O)N(c4cccc(Oc5ccccc5)c4)C(=O)[C@@H]3CC[C@H]12", "True"],
  ["CCC=CCCC(OC(=O)c1ccc(Br)cc1)C1=CCCCC1=O (stereo not drawn)", "False"],
  ["Cc1ccc(S(=O)(=O)NC(CCc2ccccc2)CC(=O)C(C)(C)C)cc1 (stereo not drawn)", "True"],
  ["CO[C@@H]1COC(=O)CC=C[C@@H](C)[C@@H]2C=C[C@H](O)[C@@H](COC(=O)CC=C[C@H]1C)O2", "False"],
  ["COC(=O)[C@@H]1CC[C@@H](C)[C@H](c2ccc(Br)cc2)N1", "False"]
]}

[Q] Is it the case that COC(=O)[C@H]1[C@@H](O)[C@@]2(O)c3ccccc3O[C@@]2(c2ccccc2)[C@@H]1c1ccccc1 has z-score reaching or exceeding 0.1?
[A] True

[Q] Decide: is the reported value of z-score for O=C1[C@H]2[C@H]3[C@H](O)[C@H](O)CC(=NOCc4ccccc4)[C@H]3CC[C@H]2C(=O)N1Cc1ccc2c(c1)OCO2 equal to or greater than 0.1?
[A] True
